Value source: ChEMBL document CHEMBL3576841

Test system: PC-3
Experiment: Cytotoxicity against human PC3 cells assessed as inhibition of cell viability at 10 uM after 3 days by trypan blue dye exclusion assay
Type: functional
Conditions: PC-3, 72 h
Below is a list of entries, each paired with its recorded inhibition at 10 µM value.
Recorded Metric: inhibition at 10 µM (%)

INSERT INTO measurements (line_notation, recorded_metric, readout_number) VALUES
  ('CCCCCn1ccnc1/C=C/C(=O)/C=C/c1nccn1CCCCC', 'inhibition at 10 µM', 90.9),
  ('O=C(/C=C/c1nc2ccccc2s1)/C=C/c1nc2ccccc2s1', 'inhibition at 10 µM', 69.8),
  ('O=C(/C=C/c1cccc(Br)n1)/C=C/c1cccc(Br)n1', 'inhibition at 10 µM', 91.9);
